test description: chemical genetic growth profiling, strain panel (AID 1159580);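 further: tested at 20 µM; growth read once vehicle control cultures reached saturation at 30 °C; 1 = growth at the plate median or of vehicle wells; lower values mean less growth of the strain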
recorded conditions: S. cerevisiae deletion strains, growth OD, locus YDL185W, strain tfp1, hits give low values
The whole screen tested about 5,500 compounds, of which about 2,000 (36%) were called active. Another 18% or so got no clear call; they are omitted. This is one part of the list.
Listed next: entries and their corresponding normalized growth.
Reply briefly: the number, and no unit.

compound	reported
CC(=O)O[C@H]1CC[C@@]2(C)C(CC[C@]3(C)C2CC=C2C4CC(C)(C)CC[C@]4(C)CC[C@]23C)C1(C)C (some centres undefined)	1.02
CC1(C)CC[C@]2(C(=O)O)CC[C@]3(C)C(=CCC4[C@@]5(C)CC[C@H](O)[C@@](C)(CO)C5CC[C@]43C)C2C1 (some centres undefined)	0.946
OC(CCN1CCCC1)(c1ccccc1)C1CCCCC1 (centres undefined)	0.979

Exercise: May I ask what normalized growth has been recorded for C[C@@H]1OC(O[C@H]2C(O[C@H]3CC[C@@]4(C)C(CC[C@]5(C)C4CC=C4C6CC(C)(C)CC[C@]6(C(=O)O)CC[C@]45C)[C@]3(C)CO)OC[C@H](O)[C@@H]2O)[C@H](O)[C@H](O)[C@H]1O (some centres undefined) ?
Key: 0.0554

###

test description: chemical genetic growth profiling, strain panel (AID 1159580)
recorded conditions: S. cerevisiae deletion strains, growth OD, locus YOR070C, strain gyp1, hits give low values
The whole screen tested about 5,500 compounds, of which about 2,000 (36%) were called active. Another 18% or so got no clear call; they are omitted. The list shows a part of the results.
Listed next: entries and their corresponding normalized growth.
Reply briefly: the number, and no unit.

compound	normalized growth
O=c1oc2cc(O)ccc2s1	1.01
C#C[C@]1(OC(C)=O)CCC2C3CCC4=C/C(=N\O)CCC4C3CC[C@@]21CC (some centres not stated)	0.394
CO[C@@]12[C@@H]3NC3CN1C1=C(C(=O)C(N)=C(C)C1=O)[C@@H]2COC(N)=O (some centres not stated)	0.993
CCOC(=O)OC(C)OC(=O)C1N2C(=O)C(NC(=O)[C@H](N)c3ccccc3)C2SC1(C)C (some centres not stated)	0.993
Nc1ccccc1C(=O)CC(N)C(=O)O (configuration not stated)	1

Exercise: May I ask what normalized growth has been recorded for C#C[C@]1(O)CCC2C3CCC4=C(CCC(=O)C4)C3CC[C@@]21C (some centres not stated) ?
Key: 1

Exercise: Next up: N=C(N)c1ccc(OCCCCCOc2ccc(C(=N)N)cc2)cc1
Key: 0.97

Exercise: Next up: COC(=O)C[C@H]1C(C)(C)C(=O)[C@@H]2CC3C4=CC(=O)O[C@@H](c5ccoc5)[C@]4(C)CCC3[C@@]1(C)C2=O (some centres not stated)
Key: 0.982

Exercise: Next up: Cc1cc(O)cc(=O)o1
Key: 1.01

Exercise: Next up: NC(N)=N/N=C/c1c(Cl)cccc1Cl
Key: 0.977

Exercise: Next up: NCCC(=O)N[C@@H](Cc1cnc[nH]1)C(=O)O
Key: 1.02

Exercise: Next up: Cc1cc(O)cc(O)c1C(=O)O
Key: 1.02

Exercise: Next up: Cc1cn([C@H]2C[C@H](N=[N+]=[N-])[C@@H](CO)O2)c(=O)[nH]c1=O
Key: 0.998

###

test description: chemical genetic growth profiling, strain panel (AID 1159580)
recorded conditions: S. cerevisiae deletion strains, growth OD, locus YJL154C, strain vps35, hits give low values
Out of some 5,500 compounds screened, about 2,000 (36%) were called active. Not shown: some 18% with an inconclusive outcome. The list shows a part of the results.
result type: normalized growth
Reply briefly: the number, and no unit.

For orientation, consider the following solved cases.
molecule	normalized growth
COC1=C[C@@H]2[C@@H]3Cc4ccc(OC)c(O)c4[C@]2(CCN3C)CC1=O	0.988
CC(CC(=O)C(O)C(C)(C)O)C1C(=O)CC2(C)C3=CCC4C(C)(C)C(OC5OCC(O)C(O)C5O)CCC45CC35C(O)CC12C (centres undefined)	1.02
N=C(N)SCCN	0.997
O=C1C(O)=C(O)C(=O)C(O)=C1O	1.02
CC(C)(Oc1ccc(CCNC(=O)c2ccc(Cl)cc2)cc1)C(=O)O	0.98
O=C(Nc1ccc(C(=O)O)c(O)c1)c1ccccc1	0.965
COc1ccc2c(c1)c(CC(=O)O)c(C)n2C(=O)c1ccc(Cl)cc1	0.989
C#C[C@]1(OC(C)=O)CCC2C3CCC4=CC(=O)CC[C@@H]4C3CC[C@@]21C (some centres undefined)	0.985
N#CC(O[C@@H]1O[C@H](CO[C@@H]2O[C@H](CO)[C@@H](O)[C@H](O)[C@H]2O)[C@@H](O)[C@H](O)[C@H]1O)c1ccccc1 (some centres undefined)	0.979
OC(CCN1CCCC1)(c1ccccc1)C1CCCCC1 (centres undefined)	0.991

Exercise: May I ask what normalized growth has been recorded for FC(F)(F)c1ccccc1-n1ccnc1 ?
Key: 1

###

test description: chemical genetic growth profiling, strain panel (AID 1159580);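 further: tested at 20 µM; growth read once vehicle control cultures reached saturation at 30 °C; 1 = growth at the plate median or of vehicle wells; lower values mean less growth of the strain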
recorded conditions: S. cerevisiae deletion strains, growth OD, locus YDR335W, strain msn5
Out of some 5,500 compounds screened, about 2,000 (36%) were called active. Roughly 18% stayed inconclusive and do not appear here. Rule as the data show it: active = normalized growth mostly below about 0.91 (no sharp cut-off); inconclusive = no clear call, values can overlap the other calls; inactive = mostly above about 0.92. The list shows a part of the results.
// classify into class 1 (active), class 0 (inactive)

compound	label
OC(CCN1CCCCC1)(c1ccccc1)C1CC2C=CC1C2 (stereo unspecified)	class 0

Below: the item to evaluate.
Exercise: What outcome does the record of this test show for COc1ccc2[nH]cc(CCN)c2c1 ?
Key: class 0

###

test description: chemical genetic growth profiling, strain panel (AID 1159580);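 further: tested at 20 µM; growth read once vehicle control cultures reached saturation at 30 °C; 1 = growth at the plate median or of vehicle wells; lower values mean less growth of the strain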
recorded conditions: S. cerevisiae deletion strains, growth OD, locus YOR070C, strain gyp1, hits give low values
In all, about 5,500 compounds went through this assay and about 2,000 (36%) were called active. Not shown: some 18% with an inconclusive outcome. Some of the results follow.
result type: normalized growth
Reply briefly: the number, and no unit.

For orientation, consider the following solved cases.
compound	normalized growth
CCOP(=S)(OCC)Oc1nc(Cl)c(Cl)cc1Cl	0.982
C/C=C(/C)C(=O)O[C@@H]1[C@H](OC(C)=O)[C@@]2(CO)C(CC1(C)C)C1=CCC3[C@@]4(C)CC[C@H](O[C@@H]5O[C@H](C(=O)O)[C@@H](O[C@@H]6O[C@H](CO)[C@@H](O)[C@H](O)[C@H]6O)[C@H](O)[C@H]5O[C@@H]5O[C@H](CO)[C@@H](O)[C@H](O)[C@H]5O)[C@](C)(CO)C4CC[C@@]3(C)[C@]1(C)C[C@H]2O (stereo partly specified)	1
O=C(Nc1ccc(C(=O)O)c(O)c1)c1ccccc1	0.976
CC(CC(=O)C1OC1(C)C)C1C(=O)CC2(C)C3=CCC4C(C)(C)C(OC5OCC(O)C(O)C5O)CCC45CC35C(O)CC12C (stereo unspecified)	1.01
CC(C)=CCCC1(C)C=Cc2c(O)c3c(c(CC=C(C)C)c2O1)OC12C(=CCCC1C(C)(C)O[C@@]2(C/C=C(\C)C(=O)O)C(=O)O)C3=O (stereo partly specified)	0.931
COC1=C[C@@H]2[C@@H]3Cc4ccc(OC)c(O)c4[C@]2(CCN3C)CC1=O	0.986

Exercise: May I ask what normalized growth has been recorded for CC(C)CCCC1(C)C=Cc2c(O)c3c(c(CCC(C)C)c2O1)OC12C(CC4CC1C(C)(C)OC2(CCC(C)C(=O)O)C4O)C3=O (stereo unspecified) ?
Key: 0.995

Exercise: Next up: O=C1C(O)=C(O)C(=O)C(O)=C1O
Key: 1.01

Exercise: Next up: CC1(C)CC[C@]2(C)CC[C@]3(C)C(=CCC4[C@@]5(C)CC[C@H](O)C(C)(C)C5CC[C@]43C)C2C1 (stereo partly specified)
Key: 0.991

Exercise: Next up: CCC(C)C(NC)C(=O)O (stereo unspecified)
Key: 1.03

###

test description: chemical genetic growth profiling, strain panel (AID 1159580);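 further: tested at 20 µM; growth read once vehicle control cultures reached saturation at 30 °C; 1 = growth at the plate median or of vehicle wells; lower values mean less growth of the strain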
recorded conditions: S. cerevisiae deletion strains, growth OD, locus YNL161W, strain CBK1, hits give low values
In all, about 5,500 compounds went through this assay and about 2,000 (36%) were called active. Roughly 18% stayed inconclusive and do not appear here. This is one part of the list.
result type: normalized growth
Reply briefly: the number, and no unit.

For orientation, consider the following solved cases.
>>> df
                                  compound  reported
0      Cc1csc(NC(=O)Nc2ccc(C(F)(F)F)cc2)c1     0.982
1                COc1ccc2nc3ccccc3c(N)c2c1     0.525
2  O=C(c1cccs1)N(Cc1cccnc1)Cc1ccc(Cl)cc1Cl     0.968
3    Cc1nc(-c2ccccn2)nc(N(C)Cc2ccccc2)c1Cl     0.964
4                  N#Cc1c2ccccc2nc2ccccc12     0.823
5       O=C(Nc1ccc(Cl)cc1)SCc1c(Cl)cccc1Cl     0.974

Exercise: May I ask what normalized growth has been recorded for CC(C)Cc1ccc(C(C)C(=O)Nc2nn(C)c3ccccc23)cc1 (stereo not drawn) ?
Key: 0.991

Exercise: Next up: CCOC(=O)c1cc(CC)sc1NC(=O)c1ccc([N+](=O)[O-])o1
Key: 0.987

Exercise: Next up: O=C(CSCc1csc2ccccc12)Nc1ccc(F)c(Cl)c1
Key: 0.977

Exercise: Next up: Clc1cc(Cl)cc(-c2nc(SCc3ccc(Cl)cc3Cl)n[nH]2)c1
Key: 0.991

Exercise: Next up: Cc1nc(-c2ccccn2)[nH]c(=O)c1Cc1c(Cl)cccc1Cl
Key: 0.958

Exercise: Next up: CSc1n[nH]c(-c2cc(C(F)(F)F)cc(C(F)(F)F)c2)n1
Key: 0.948

Exercise: Next up: O=C(NCC1COc2ccccc2O1)c1ccc(Cl)cc1 (stereo not drawn)
Key: 0.958

Exercise: Next up: C=CCc1c(CCC)nc(-c2ccccn2)[nH]c1=O
Key: 0.945

Exercise: Next up: Cc1csc(NC(=O)Nc2ccc(C(F)(F)F)cc2)c1Cl
Key: 0.957

Exercise: Next up: COc1cccc(NC(=S)NC2CC(C)CC(C)(C)C2)c1 (stereo not drawn)
Key: 0.971

Exercise: Next up: S=C(NNC(=S)NC1CC2C=CC1C2)Nc1ccc(Br)c(Cl)c1 (stereo not drawn)
Key: 0.982

Exercise: Next up: O=C(NCCNc1ncc(Cl)cc1C(F)(F)F)C(F)(F)Sc1ccccc1
Key: 0.984

Exercise: Next up: Nc1ccccc1C(=O)N/N=C\c1cc(Br)ccc1O
Key: 0.979

Exercise: Next up: S=C(Nc1ccc(Cl)cc1)SCc1c(Cl)cccc1Cl
Key: 0.978

Exercise: Next up: OC1CCN(c2cc(C(F)(F)F)nc3cc(Cl)cc(Cl)c23)CC1
Key: 0.975

Exercise: Next up: O=C(N/N=C\c1cc(Br)ccc1O)c1ccccc1Oc1ccccc1
Key: 0.982

Exercise: Next up: O=C(NCC(c1ccccc1)c1c[nH]c2ccccc12)c1ccc(C(F)(F)F)cc1 (stereo not drawn)
Key: 0.995
